Target: Ribosyldihydronicotinamide dehydrogenase [quinone] (Homo sapiens)
Sequence (P16083 whole entry): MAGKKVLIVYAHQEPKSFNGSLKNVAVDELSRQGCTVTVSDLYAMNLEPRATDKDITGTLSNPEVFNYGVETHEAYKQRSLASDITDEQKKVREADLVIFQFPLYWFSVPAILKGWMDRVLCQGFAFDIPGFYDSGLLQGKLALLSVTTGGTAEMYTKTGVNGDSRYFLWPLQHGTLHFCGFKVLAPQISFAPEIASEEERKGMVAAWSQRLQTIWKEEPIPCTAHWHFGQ
Experiment: Binding affinity to low affinity melatonin (MT3) site of quinone reductase 2
attribute_measured: IC50 (nM)
Write the number in nM without appending the unit.

Quote IC50 reported for COc1cc2nc(N3CCN(C(=O)c4ccco4)CC3)nc(N)c2cc1OC please.
7.8

---

Target: Melatonin receptor type 1A (Homo sapiens)
Sequence (P48039 whole entry): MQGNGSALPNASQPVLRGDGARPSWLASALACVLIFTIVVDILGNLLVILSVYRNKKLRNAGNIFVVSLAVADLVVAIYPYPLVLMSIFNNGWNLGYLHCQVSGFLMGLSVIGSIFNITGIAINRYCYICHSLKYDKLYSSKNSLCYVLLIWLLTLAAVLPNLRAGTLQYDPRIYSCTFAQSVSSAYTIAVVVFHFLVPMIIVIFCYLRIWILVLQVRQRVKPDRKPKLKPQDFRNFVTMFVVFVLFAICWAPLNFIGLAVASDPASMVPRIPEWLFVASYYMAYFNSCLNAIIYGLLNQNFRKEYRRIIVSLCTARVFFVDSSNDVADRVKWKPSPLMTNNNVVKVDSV
attribute_measured: pIC50
Bear in mind: pIC50 is minus log10 of a mol/L concentration; give just that figure.

Solved entries (count: 3):
COC(=O)Nc1ccc2[nH]cc(CCNC(C)=O)c2c1 = 6.00
CSc1ccc2cccc(CCNC(C)=O)c2c1 = 9.06
CNS(=O)(=O)c1ccc2cccc(CCNC(C)=O)c2c1 = 5.30

Lab note: next molecule to report on.
Under Melatonin receptor type 1A (Homo sapiens), report pIC50 for CC(=O)NCCc1cccc2ccc(S(C)(=O)=O)cc12
6.32

---

Organism: Homo sapiens
Assay: Selectivity ratio of IC50 for human MT1 to IC50 for human MT3
attribute_measured: Ratio IC50
The answer should be a number; do not append a unit.

Quote Ratio IC50 reported for CSc1ccc2cccc(CCNC(C)=O)c2c1 please.
0.05

Quote Ratio IC50 reported for COC(=O)Nc1ccc2cccc(CCNC(C)=O)c2c1 please.
219

---

Target: Ribosyldihydronicotinamide dehydrogenase [quinone] (Homo sapiens)
Sequence (P16083 whole entry): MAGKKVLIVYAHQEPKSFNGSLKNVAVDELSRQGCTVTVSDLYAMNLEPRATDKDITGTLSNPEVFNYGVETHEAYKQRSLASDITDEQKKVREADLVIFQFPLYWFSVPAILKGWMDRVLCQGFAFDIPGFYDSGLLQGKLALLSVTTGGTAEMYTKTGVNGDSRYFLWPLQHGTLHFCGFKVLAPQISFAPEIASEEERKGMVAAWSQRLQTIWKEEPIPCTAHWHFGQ
Assay: Binding affinity to human low affinity melatonin (MT3) site of quinone reductase 2
Parameter IC50: see the listing below.
Dear colleague, please send the value followed by its unit.

COC(=O)Nc1ccc2cccc(CCNC(C)=O)c2c1 = 0.39 nM

Lab note: next molecule to report on.
Under Ribosyldihydronicotinamide dehydrogenase [quinone] (Homo sapiens), report IC50 for CNS(=O)(=O)c1ccc2cccc(CCNC(C)=O)c2c1
4.9 nM

---

Parameter Ratio IC50: see the listing below.
Species on record: Homo sapiens
Assay: Selectivity ratio of IC50 for human MT1 to IC50 for human MT3

Solved entries (count: 4):
CC(=O)NCCc1cccc2ccc(S(N)(=O)=O)cc12 = 10
CNS(=O)(=O)c1ccc2cccc(CCNC(=O)c3ccco3)c2c1 = 287
CC(=O)NCCc1cccc2ccc(S(C)(=O)=O)cc12 = 23
CC(=O)NCCc1cccc2ccc([S+](C)[O-])cc12 (stereo not given) = 2

Lab note: next molecule to report on.
Quote Ratio IC50 reported for CNS(=O)(=O)c1ccc2cccc(CCNC(C)=O)c2c1 please.
1020
